Tested on: Candida albicans
Assay: Antifungal activity against Candida albicans ATCC 10231 after 48 hrs by broth microdilution method
Type: functional
Conditions: ATCC 10231, 48 h
property.label: MIC (µg/mL)
Numeric only. Scale: µg/mL

[Q] Name the reported MIC value associated with the compound C[C@@H]1[C@H](O)[C@@H](C)/C=C/C=C/C=C/C=C/C=C/C=C/C=C/[C@H](O[C@@H]2O[C@H](C)[C@@H](O)[C@H](N)[C@@H]2O)C[C@@H]2O[C@](O)(C[C@@H](O)C[C@@H](O)[C@H](O)CC[C@@H](O)C[C@@H](O)CC(=O)O[C@H]1C)C[C@H](O)[C@H]2C(=O)O
[A] 0.5

[Q] Also check OC(Cn1cncn1)(Cn1cncn1)c1ccc(F)cc1F
[A] 1

[Q] Also check O=C1CSc2ccccc2N1CC(O)(Cn1cncn1)c1ccc(F)cc1F (centres undefined)
[A] 0.12

[Q] Also check O=C1COc2ccccc2N1CC(O)(Cn1cncn1)c1ccc(F)cc1F (centres undefined)
[A] 0.5

---

Test system: Nakaseomyces glabratus
Assay: Antifungal activity against Candida glabrata ATCC 90030 after 48 hrs by broth microdilution method
Format: functional
Conditions: ATCC 90030, 48 h
property.label: MIC

[Q] Name the reported MIC value associated with the compound OC(Cn1cncn1)(Cn1cncn1)c1ccc(F)cc1F
[A] 4 µg/mL

[Q] Also check O=C1CSc2ccccc2N1CC(O)(Cn1cncn1)c1ccc(F)cc1F (centres undefined)
[A] 0.06 µg/mL

[Q] Also check O=C1COc2ccccc2N1CC(O)(Cn1cncn1)c1ccc(F)cc1F (centres undefined)
[A] 0.25 µg/mL

[Q] Also check C[C@@H]1[C@H](O)[C@@H](C)/C=C/C=C/C=C/C=C/C=C/C=C/C=C/[C@H](O[C@@H]2O[C@H](C)[C@@H](O)[C@H](N)[C@@H]2O)C[C@@H]2O[C@](O)(C[C@@H](O)C[C@@H](O)[C@H](O)CC[C@@H](O)C[C@@H](O)CC(=O)O[C@H]1C)C[C@H](O)[C@H]2C(=O)O
[A] 0.25 µg/mL

---

System: Candida tropicalis
Assay: Antifungal activity against Candida tropicalis ATCC 750 after 48 hrs by broth microdilution method
Type: functional
Conditions: ATCC 750, 48 h
property.label: MIC
Answer with the number, then the unit.

[Q] Name the reported MIC value associated with the compound C[C@@H]1[C@H](O)[C@@H](C)/C=C/C=C/C=C/C=C/C=C/C=C/C=C/[C@H](O[C@@H]2O[C@H](C)[C@@H](O)[C@H](N)[C@@H]2O)C[C@@H]2O[C@](O)(C[C@@H](O)C[C@@H](O)[C@H](O)CC[C@@H](O)C[C@@H](O)CC(=O)O[C@H]1C)C[C@H](O)[C@H]2C(=O)O
[A] 0.5 µg/mL

[Q] Also check OC(Cn1cncn1)(Cn1cncn1)c1ccc(F)cc1F
[A] 2 µg/mL

[Q] Also check O=C1COc2ccccc2N1CC(O)(Cn1cncn1)c1ccc(F)cc1F (centres undefined)
[A] 2 µg/mL

[Q] Also check O=C1CSc2ccccc2N1CC(O)(Cn1cncn1)c1ccc(F)cc1F (centres undefined)
[A] 0.5 µg/mL

---

Test system: Candida albicans
Assay: Antifungal activity against Candida albicans ATCC 2091 after 48 hrs by broth microdilution method
Type: functional
Details: ATCC 2091, 48 h
property.label: MIC (µg/mL)
Numeric only. Scale: µg/mL

[Q] Name the reported MIC value associated with the compound C[C@@H]1[C@H](O)[C@@H](C)/C=C/C=C/C=C/C=C/C=C/C=C/C=C/[C@H](O[C@@H]2O[C@H](C)[C@@H](O)[C@H](N)[C@@H]2O)C[C@@H]2O[C@](O)(C[C@@H](O)C[C@@H](O)[C@H](O)CC[C@@H](O)C[C@@H](O)CC(=O)O[C@H]1C)C[C@H](O)[C@H]2C(=O)O
[A] 0.5

[Q] Also check OC(Cn1cncn1)(Cn1cncn1)c1ccc(F)cc1F
[A] 0.5

[Q] Also check O=C1CSc2ccccc2N1CC(O)(Cn1cncn1)c1ccc(F)cc1F (centres undefined)
[A] 0.12

[Q] Also check O=C1COc2ccccc2N1CC(O)(Cn1cncn1)c1ccc(F)cc1F (centres undefined)
[A] 0.25
